Target: Serine/threonine-protein kinase 33 (Homo sapiens)
Assay: STK33 kinase inhibitors, primary screen, biochemical, luminescence, ADP-Glo, MBP substrate (AID 2322)
Conditions: at 12.5 µM, hits give high values
Out of some 27,000 compounds screened, about 120 (0.44%) were called active. Only a selection was taken, and actives are over-represented in it overall.
# Lookup of reported inhibition keyed by entry
experimentalReadout: inhibition

[[record]]
compound = "C[C@@H]1CCCCO[C@H](CN(C)C(=O)NC2CCCCC2)[C@@H](C)CN([C@H](C)CO)C(=O)c2cc(NS(=O)(=O)c3ccc(F)cc3)ccc2O1"
endpointresult = "-0.501% (inactive)"

[[record]]
compound = "CN1C(=O)C(O)(CC(=O)c2ccco2)c2cc([N+](=O)[O-])ccc21 (stereo not drawn)"
endpointresult = "1.09% (inactive)"

[[record]]
compound = "C[C@H]1CN([C@@H](C)CO)C(=O)c2cc(NC(=O)Cn3cnnn3)ccc2O[C@H]1CN(C)S(C)(=O)=O"
endpointresult = "-0.963% (inactive)"

[[record]]
compound = "CCOC(=O)c1sc(NC(=O)c2cc(C)on2)c(C(=O)OCC)c1C"
endpointresult = "-1.02% (inactive)"

[[record]]
compound = "O=[N+]([O-])c1cccc(NC(=S)Nc2nn(Cc3ccc(Cl)cc3Cl)cc2Cl)c1"
endpointresult = "1% (inactive)"

[[record]]
compound = "O=C(COc1ccc2oc3c(c2c1)CCCC3)Nc1cccnc1"
endpointresult = "-2.38% (inactive)"

[[record]]
compound = "Cc1noc(C)c1NC(=O)Nc1ccc2c(c1)C(=O)N([C@H](C)CO)C[C@H](C)[C@@H](CN(C)Cc1ccc3c(c1)OCO3)OCCCC[C@@H](C)O2"
endpointresult = "-1.44% (inactive)"

[[record]]
compound = "O=C(COc1ccc2c(=O)c(-c3ccccc3)coc2c1)Nc1ccc(F)cc1"
endpointresult = "1.18% (inactive)"


###

Biological target: Serine/threonine-protein kinase 33 (Homo sapiens) (UniProt Q9BYT3)
Sequence (Q9BYT3 whole entry, looked up): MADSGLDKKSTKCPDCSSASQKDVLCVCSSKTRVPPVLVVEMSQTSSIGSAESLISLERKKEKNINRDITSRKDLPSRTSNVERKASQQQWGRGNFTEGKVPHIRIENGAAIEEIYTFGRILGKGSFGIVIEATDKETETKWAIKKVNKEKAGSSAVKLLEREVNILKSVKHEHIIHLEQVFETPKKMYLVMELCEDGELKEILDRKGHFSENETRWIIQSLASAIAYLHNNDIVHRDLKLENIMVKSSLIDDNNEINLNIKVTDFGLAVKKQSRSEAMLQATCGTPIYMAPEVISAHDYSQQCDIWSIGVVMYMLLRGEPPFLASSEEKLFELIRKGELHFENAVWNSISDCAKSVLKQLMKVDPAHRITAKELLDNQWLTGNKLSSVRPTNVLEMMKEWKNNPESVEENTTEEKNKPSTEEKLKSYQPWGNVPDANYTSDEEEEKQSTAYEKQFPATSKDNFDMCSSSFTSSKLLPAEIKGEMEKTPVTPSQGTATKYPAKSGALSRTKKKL
Test: STK33 kinase inhibitors, primary screen, biochemical, luminescence, ADP-Glo, MBP substrate (AID 2322)
Conditions: at 12.5 µM, hits give high values
Out of some 27,000 compounds screened, about 120 (0.44%) were called active. What follows is part of a selection rich in actives, with near analogues and random picks from the rest.
experimentalReadout: inhibition (%)

[[record]]
compound = "COc1ccc(CCNC(=S)Nc2c(C)n(C)n(-c3ccccc3)c2=O)cc1OC"
systemtested = "Serine/threonine-protein kinase 33 (Homo sapiens) (UniProt Q9BYT3)"
unitstext = "%"
endpointresult = 0.317

[[record]]
compound = "COc1ccc(N(C(C)C(=O)Nc2cccc(Br)c2)S(C)(=O)=O)cc1 (centres undefined)"
systemtested = "Serine/threonine-protein kinase 33 (Homo sapiens) (UniProt Q9BYT3)"
unitstext = "%"
endpointresult = -0.0651

[[record]]
compound = "C[C@H](CO)N1C[C@H](C)[C@@H](CN(C)S(=O)(=O)c2ccc(F)cc2)OCc2cnnn2CCCC1=O"
systemtested = "Serine/threonine-protein kinase 33 (Homo sapiens) (UniProt Q9BYT3)"
unitstext = "%"
endpointresult = 3.05

[[record]]
compound = "COC(=O)c1cc(OC)c(OC)cc1NC(=O)COc1ccc(Cl)cc1"
systemtested = "Serine/threonine-protein kinase 33 (Homo sapiens) (UniProt Q9BYT3)"
unitstext = "%"
endpointresult = -1.45

[[record]]
compound = "CC(C)S(=O)(=O)NCC1CCN(Cc2cccc(OCCO)c2)CC1"
systemtested = "Serine/threonine-protein kinase 33 (Homo sapiens) (UniProt Q9BYT3)"
unitstext = "%"
endpointresult = -4.57

[[record]]
compound = "CCn1c(SCC(=O)c2ccc(OC)cc2)nnc1-c1ccccc1F"
systemtested = "Serine/threonine-protein kinase 33 (Homo sapiens) (UniProt Q9BYT3)"
unitstext = "%"
endpointresult = -0.529

[[record]]
compound = "C[C@H]1CN([C@@H](C)CO)C(=O)c2cc(NC(=O)Cc3cn(C)c4ccccc34)ccc2O[C@H]1CN(C)CC1CCCCC1"
systemtested = "Serine/threonine-protein kinase 33 (Homo sapiens) (UniProt Q9BYT3)"
unitstext = "%"
endpointresult = 0.289

[[record]]
compound = "C[C@@H]1CN([C@@H](C)CO)C(=O)CCCn2cc(nn2)CO[C@@H]1CN(C)S(=O)(=O)c1cccc(F)c1"
systemtested = "Serine/threonine-protein kinase 33 (Homo sapiens) (UniProt Q9BYT3)"
unitstext = "%"
endpointresult = -2.04

[[record]]
compound = "O=C(CSc1nc2sc3c(c2c(=O)[nH]1)CCC3)Nc1ccccc1C(F)(F)F"
systemtested = "Serine/threonine-protein kinase 33 (Homo sapiens) (UniProt Q9BYT3)"
unitstext = "%"
endpointresult = -3.77

